tested on: HIV-1RF; test: microbe, parasite or virus in culture; type: cell-based, human immunodeficiency virus HIV-1RF; conditions: Human immunodeficiency virus 1, C8166, read-out: IC50 (Antiviral), Average
pIC50: −log10 of the molar value.
readout: pIC50

compound: O=C(O)c1cc([N+](=O)[O-])c(Cl)c([N+](=O)[O-])c1Cl [C1, 2,4-dichloro-3,5-dinitrobenzoic acid]
measured-result: 4.94

---

assay: Anti-tumour activity against M5076 solid tumour (tumour weight inhibition); assay type: in vivo, murine; details: mouse, in vivo; ip, per day, in corn oil; M5076 study; read-out: Maximum tolerated dose
readout: MTD (mg/kg)

line-notation: COC(=O)c1cc([N+](=O)[O-])c(Cl)c([N+](=O)[O-])c1Cl
readout: MTD
unit-abbrev: mg/kg
measured-result: 1

From: patent EP0751768B1
